System: DLD-1 colon
Experiment: NCI tumour cell line growth inhibition, 48 h
attribute_measured: TGI

compound	target_desc	TGI
CC1OC(OC2C(OC(=O)[C@]34CCC(C)(C)CC3C3=CCC5[C@@]6(C)C[C@H](O)[C@H](OC7OC(COC8OC(CO)C(O)C(O)C8O)C(O)C(O)C7O)[C@@](C)(C(=O)O)C6CC[C@@]5(C)C3(C)CC4)OCC(O)C2O)C(O)C(O)C1OC1OCC(O)C(O)C1O (some centres undefined)	DLD-1 colon	> 100 µM

Query string: Fill in the recorded TGI for this compound, with DLD-1 colon as test system: `O=C1c2cccc([N+](=O)[O-])c2C(=O)c2nccnc21`
Result string: 11.4 µM

Query string: Then `Cn1nc(-c2ccccc2)c2c(/C=C/c3ccc(Cl)cc3)onc2c1=O` ?
Result string: > 100 µM

Query string: Same lookup for `COc1ccc(Cc2cc(OC)c(OC)c(OC)c2)cc1` , please.
Result string: > 100 µM

Query string: Can you handle Cc1ccc(C(=O)C(c2nc3n(c2O)C(=N)N=N3)c2nc3n(c2O)C(=N)N=N3)cc1 (centres undefined) next?
Result string: > 100 µM

Query string: Can you handle COC(=O)C(=O)C(C#N)c1cccc(Cl)c1 (centres undefined) next?
Result string: > 100 µM

Query string: Entry `CC(=O)NNc1nc(C)c(C(/C=C/c2ccc(Cl)cc2)=N\N=C(N)N)s1` please
Result string: > 100 µM

Query string: Do the same for CC1(CO)C(O)CCC2(C)C1C(O)CC1CC3CC12CCC3(O)CO (centres undefined) please
Result string: > 225 µM

Query string: For N#CC(C(=O)/C(=N/NC(=O)c1ccccc1O)C(C#N)c1ccc(Br)cc1)c1ccc(Br)cc1 (centres undefined) then?
Result string: 25.6 µM

---

The reader will find reported TGI values listed item by item below.
Test system: K-562 leukemia
Test: NCI tumour cell line growth inhibition, 48 h

Recorded results for 3 molecules are shown here.
molecule	target_desc	result
CN1C(=O)/C(=C2\S/C(=N\c3nnc(-c4ccccc4)o3)NC2=O)c2ccccc21	K-562 leukemia	> 100 µM
CN1C(c2ccccc2)CC(C)(O)CC1c1ccccc1 (stereo unspecified)	K-562 leukemia	> 100 µM
CC1=NNC(=O)C1C1CC(c2c[nH]c3ccccc23)=NN(c2ccccc2)C1=O (stereo unspecified)	K-562 leukemia	> 100 µM

Query string: Recorded TGI for `COc1cccc(N2C(=O)/C(=C/c3ccc(N(CCC#N)CCC#N)cc3)N=C2c2cc([N+](=O)[O-])ccc2Cl)c1` with K-562 leukemia, please?
Result string: > 100 µM

Query string: Ok, now `CCCCCCCCCC(=O)NCCc1c[nH]c2ccc(OC)cc12`
Result string: > 100 µM

Query string: Now the same for `Fc1ccc(Oc2nc3ccccc3nc2-c2ccccc2)cc1`
Result string: > 100 µM

Query string: Next record, please: O=C(CC(Cc1ccccc1)c1ccc(Oc2ccccc2)cc1)Nc1cccc(Cl)c1 (stereo unspecified)
Result string: > 100 µM

Query string: Would you kindly repeat that for `CC(=O)NNc1nc(C)c(C(/C=C/c2ccc(Cl)cc2)=N\N=C(N)N)s1` ?
Result string: > 100 µM

---

Tested on: SNB-78 CNS
Assay: NCI tumour cell line growth inhibition, 48 h
Parameter: TGI. Scope: all listed entries.

compound	TGI
COc1ccc(Cc2cc(OC)c(OC)c(OC)c2)cc1	> 100 µM

Query string: Identify the measured TGI of `CCC[CH2][Sn]1([CH2]CCC)[O]C(=O)CN=C(C)c2ccccc2[O]1` for SNB-78 CNS.
Result string: 1.7 µM

Query string: Record: O=C(CN(Cc1ccccc1)Cc1ccccc1)N1CCc2c([nH]c3ccccc23)C1c1cccnc1 (stereo unspecified)
Result string: > 100 µM

Query string: One more compound: CCC(C)C(=O)O[C@H]1C(=O)O[C@@H]2C[C@H]3C(C)=CC(=O)[C@@H](O)[C@]3(C)[C@H]3[C@@H](O)[C@H](O)[C@@]4(C)OC[C@]32[C@@H]14 (stereo partly specified)
Result string: 0.394 µM

Query string: // next record N#CC(C(=O)/C(=N/NC(=O)c1ccccc1O)C(C#N)c1ccc(Br)cc1)c1ccc(Br)cc1 (stereo unspecified)
Result string: 25.5 µM

Query string: What do you have for `CC(=O)NNc1nc(C)c(C(/C=C/c2ccc(Cl)cc2)=N\N=C(N)N)s1` ?
Result string: > 100 µM

Query string: Next entry: CC1(CO)C(O)CCC2(C)C1C(O)CC1CC3CC12CCC3(O)CO (stereo unspecified)
Result string: > 225 µM

Query string: Try this compound too: `Cc1ccccc1C=NC12CC3CC(CC(C3)C1)C2`
Result string: > 100 µM

Query string: Same read-out for `O=C1C[C@@H]2[C@@H](CCC23CCCC3)N1` ?
Result string: > 100 µM

Query string: Input `CC(C)NC(=O)OCc1nnn2c1CCC2`
Result string: > 100 µM

Query string: And then `Cc1ccc(NC(=O)CCc2nnc3s/c(=C\c4cccc([N+](=O)[O-])c4)c(=O)n23)cc1` , what is it?
Result string: > 100 µM

Query string: Similarly, `CC(C)COC(=O)c1ccc(N=Cc2ccc(C=Nc3ccc(C(=O)OCC(C)C)cc3)cc2)cc1` ?
Result string: > 100 µM

Query string: Now consider `Cn1cnc([N+](=O)[O-])c1Sc1nc2ccccc2o1` .
Result string: 32.3 µM

Query string: Subsequent entry: `O=C(CSc1nnc(Cc2ccccc2)o1)Nc1ccc(Cl)cc1[N+](=O)[O-]`
Result string: 47.6 µM

Query string: And for `O=C1c2cccc([N+](=O)[O-])c2C(=O)c2nccnc21` ?
Result string: 7.38 µM

Query string: How about this compound: `O=C(Nc1ccccc1)n1cc(-c2ccccn2)c(N2CCOCC2)n1`
Result string: > 100 µM
